Parameter: self-cleavage. Scope: all listed entries.
B1: HDV Ribozyme (parent)
chain: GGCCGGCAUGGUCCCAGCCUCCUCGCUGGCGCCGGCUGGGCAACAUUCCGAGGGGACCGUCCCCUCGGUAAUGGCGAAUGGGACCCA

# Variants of: B1
# run.description: self-cleavage, relative activity (ratio to wild type); higher = more cleavage; co-transcriptional
measurement.type: self-cleavage

• GGCUGGCAUGGUCCCAGCCUCCUCGCUGGCGCCGGCUGGGCAGCAUUCCGAGGGGACCGUCCCCUCGGUAAUGGCGAAUGGGACCCA [C4U A43G] = 0
• UGCCGGCAUGGUCCCAGCCUCCUCGCUGGCGCCGGCUGGGCAACAUUCCGAGGGGACCCUCCCCUCGGUAAUGGCGAAUGGGACCCA [G1U G59C] = 0.277
• GGCCGGCACGGUCCCAGCCUCCUCGCUGGCGCCGGCUGGGCAACAUUCCGAGGGGACCGUCCCCCCGGUAAUGGCGAAUGGGACCCA [U9C U65C] = 1.22
• GGCCCGCAUGGUCCCAGCCUCCUCGCUGGCGCCUGCUGGGCAACAUUCCGAGGGGACCGUCCCCUCGGUAAUGGCGAAUGGGACCCA [G5C G34U] = 0.0426
• GGCCGGCAUGGUCCCAGCCUCCUCGCUGGCGCGGGCUGGGCAACAUUCCGAGGGGACCGUCCCCUCGGUUAUGGCGAAUGGGACCCA [C33G A70U] = 0.383
• GGCCGGCAUGGUCCCAGCCUCCUCUCUGGUGCCGGCUGGGCAACAUUCCGAGGGGACCGUCCCCUCGGUAAUGGCGAAUGGGACCCA [G25U C30U] = 0.102
• GGCCGGCAUGGUCCCAACCACCUCGCUGGCGCCGGCUGGGCAACAUUCCGAGGGGACCGUCCCCUCGGUAAUGGCGAAUGGGACCCA [G17A U20A] = 0.253
• GGCCGGCAUGGUCCCAGCCUCCUCGCUGGCGCCAGCUGGGCAACAUUCCGAUGGGACCGUCCCCUCGGUAAUGGCGAAUGGGACCCA [G34A G52U] = 0.143
• GGCCGGCAUGGUCCCAGCCUCCUCGCUGCCGCCGGCUGGGCAACAUUCCGAGGGGACCGUCCCCUCGGUAAUGGCGAAUGGGAUCCA [G29C C84U] = 0.032
• GGCCGGCAUGGUCCAAGCCUCCUCGCUGGCGCCGGCUGGGCAACAUUCCCAGGGGACCGUCCCCUCGGUAAUGGCGAAUGGGACCCA [C15A G50C] = 0.404
• GGCCGGCAUGCUCCCAGCCUCCUCGCUGGCGCCGGCUGGGCAACAUUCCGAGGGGACCGUCACCUCGGUAAUGGCGAAUGGGACCCA [G11C C62A] = 0.475
• GGCCGGCAUGGUCCCGGCCUCCUCGCUGGCGCCGGCUGGGCAACGUUCCGAGGGGACCGUCCCCUCGGUAAUGGCGAAUGGGACCCA [A16G A45G] = 0.772
• GGCCGGCAUGGCCCCAGCGUCCUCGCUGGCGCCGGCUGGGCAACAUUCCGAGGGGACCGUCCCCUCGGUAAUGGCGAAUGGGACCCA [U12C C19G] = 0.0723
• GGCCGGCAUGGUCCCAGCCUCCUCGCUGGCGCCCGCUGGGCAACAUUCCGAGGGGACCGUCCCCUCGGUAAUGGCGAAUGGUACCCA [G34C G82U] = 0.0652
• GGCCGGCAUGGGCACAGCCUCCUCGCUGGCGCCGGCUGGGCAACAUUCCGAGGGGACCGUCCCCUCGGUAAUGGCGAAUGGGACCCA [U12G C14A] = 0.356
• GGCCGGCAUGGUCCCAGCGUCCUCGCUGGCGCCGGCUGGGCAACAUUCCGAGGGGACCGUCCCCUCGUUAAUGGCGAAUGGGACCCA [C19G G68U] = 0.119
• GGCCGGCAUGGUCCCAGCCUCCUCGCUGGCGCCGGCUGGGCAACAUUCCGAGGGGACCGUCCCCGCGGUAAUGGCGAAGGGGACCCA [U65G U79G] = 1.2
• GGCCGGCAUUGUCCCAGCCUCCUCGCUGGCGCCGGCUGGGCAACAUUCCGAGGGAACCGUCCCCUCGGUAAUGGCGAAUGGGACCCA [G10U G55A] = 0.893
• GGCCGUCAUGGUCCCAGCCUCCUCGCUGGCGCCGGCUGGGCAACAUUCCGAGGGGACCGUCCCCUCGGUAAUGGCGAAUGGGACCCU [G6U A87U] = 0.591
• GGCCGGCAGGGUCCCAGCCUCCUCGCUGGCGCCGGCUGGGCAACAUUCCGAGGUGACCGUCCCCUCGGUAAUGGCGAAUGGGACCCA [U9G G54U] = 0.831
• GGCCGGCAUGGUCCCACCCUCCUCGCUGGCGCCGGUUGGGCAACAUUCCGAGGGGACCGUCCCCUCGGUAAUGGCGAAUGGGACCCA [G17C C36U] = 0.0339
• GGCCGCCAUGGUCCCAGCCUCCUCGCUAGCGCCGGCUGGGCAACAUUCCGAGGGGACCGUCCCCUCGGUAAUGGCGAAUGGGACCCA [G6C G28A] = 0.0545
• GGCCGGCAAGGUCCCAGCCUCCUCGGUGGCGCCGGCUGGGCAACAUUCCGAGGGGACCGUCCCCUCGGUAAUGGCGAAUGGGACCCA [U9A C26G] = 0.623
• GGCCGGCAUGGUCACAGCCUCCUCGGUGGCGCCGGCUGGGCAACAUUCCGAGGGGACCGUCCCCUCGGUAAUGGCGAAUGGGACCCA [C14A C26G] = 0.831
• GGCCGGCCUGGUCCCAGCCUCCUCGCUGGCGCCGGCUGGGCAACUUUCCGAGGGGACCGUCCCCUCGGUAAUGGCGAAUGGGACCCA [A8C A45U] = 0.429
• GGCCGGCAUGGUCCCAGCCUCCUCGCUGGCGCCGGCUGGGCAACAUUCCGAGGGGACCGUCCCCUCGGUAAUGGCGAGUGGGACACA [A78G C85A] = 0.86
• GGCCGGCAUGGUCCCAGCCUCCUCGCUGGGGCCGGCUGGCCAACAUUCCGAGGGGACCGUCCCCUCGGUAAUGGCGAAUGGGACCCA [C30G G40C] = 0.106
• GGCCGGCAUGGUCCCAGCCUCCUCGCUGGCGCCGGCUGGGCAACAUUACAAGGGGACCGUCCCCUCGGUAAUGGCGAAUGGGACCCA [C48A G50A] = 0.969
• GGCCGGCAUGGUCCCAGCCUCCUCGCUGGCGCCGGCUCGGCAACAUUCCGAGGGGACCGUCCCCUCGGUAAUGGCGAAUGGGACCAA [G38C C86A] = 0.136
• GGCCGGGAUGGUCCCAGCCUCCUCGCUGGCGCCGGCUGGGCAACAUUCCGAGGGGACCGUCCCCUCGGUAAUGUCGAAUGGGACCCA [C7G G74U] = 0.0361
• GGCCGGCAUGGUCCCAGCCUCCUCGUUGGCGCCGGCUGGGCAACAUUCCGAGGGGUCCGUCCCCUCGGUAAUGGCGAAUGGGACCCA [C26U A56U] = 1.12
• GGCCGGCAUGGUCCUAGCCUCCUCGCUGGCGCCGGCUGGGCAACAUUCCGAGGGGACCGUCCCCUCGGUAAUGGCGAAUGGCACCCA [C15U G82C] = 0.166
• GGCCGGCAUGGUCCCAGCCUCCUCGCUGGAGCCGGCUGGGCAACAUUCCGAGGGGACCGUCCCCUCAGUAAUGGCGAAUGGGACCCA [C30A G67A] = 0.623
• GGCCGGCAUGGUCCCAGCCUCCUCGCUGGCGCCGAGUGGGCAACAUUCCGAGGGGACCGUCCCCUCGGUAAUGGCGAAUGGGACCCA [G35A C36G] = 0.35
• GGCGGGCAUGGUCCCAGCCUCCUCGCUGGCGCCGGCUAGGCAACAUUCCGAGGGGACCGUCCCCUCGGUAAUGGCGAAUGGGACCCA [C4G G38A] = 0
• GGCCGGCAUGGUCCCAGCCUCCUCGCUGGCGCCGGCUGGGCAGCAUACCGAGGGGACCGUCCCCUCGGUAAUGGCGAAUGGGACCCA [A43G U47A] = 0.383
• GGCCGGCAUGGUCACAGCCUCCUCGCUGGCGCCGGCUGGGCAACAUUCCGAGGGGACCGUCCCCUCGGUAAUGGCGAAUGAGACCCA [C14A G81A] = 0.911
• AGCCGGCAUGGUCCCAGCCUCCUAGCUGGCGCCGGCUGGGCAACAUUCCGAGGGGACCGUCCCCUCGGUAAUGGCGAAUGGGACCCA [G1A C24A] = 0.119
• GGCCGGCUUGGUCCCAGCCUCCUCGCUGGCGCCGGCUGGGCAACAUUCCGAGGGGAUCGUCCCCUCGGUAAUGGCGAAUGGGACCCA [A8U C57U] = 0.91
• GGCCGGCAUGGUCCCAGCCUCCUCGCUGGCGUCGGCUGGGCAACAUUCCGAGCGGACCGUCCCCUCGGUAAUGGCGAAUGGGACCCA [C32U G53C] = 0.846
• AGCCGGCAUGGUCCCAGCCUCCUCGCUGGCGCCGGCUGGGCAACAUUCCAAGGGGACCGUCCCCUCGGUAAUGGCGAAUGGGACCCA [G1A G50A] = 0
• GGCCGGCAAGGUCCCAGCCUCCUCGCUGGCGCCGGCUGGGCAACGUUCCGAGGGGACCGUCCCCUCGGUAAUGGCGAAUGGGACCCA [U9A A45G] = 0.733
• GGCCGGCAUGGUCCCAGCCUCCUCGCUGGCGCCGGCUGGACCACAUUCCGAGGGGACCGUCCCCUCGGUAAUGGCGAAUGGGACCCA [G40A A42C] = 0.543
• GGCCGACAUGGUCCCAGCCUGCUCGCUGGCGCCGGCUGGGCAACAUUCCGAGGGGACCGUCCCCUCGGUAAUGGCGAAUGGGACCCA [G6A C21G] = 0.203
• CGCCGGCAUGGUCCCAGCCUCCUCGCUGGCGCCGGCUGGGCAACAUCCCGAGGGGACCGUCCCCUCGGUAAUGGCGAAUGGGACCCA [G1C U47C] = 0.399
• GGCCGGCAUGGUCCCAGCCUCCUCGCUGGCGCCGGCUGGGCAACAUUUCGAGGGGACCGUCCCCCCGGUAAUGGCGAAUGGGACCCA [C48U U65C] = 1.07

Cited source: the RNAGym collection of RNA variant scans (doi:10.7554/elife.80360)
